Where do the numbers come from? From the RNAGym collection of RNA variant scans (doi:10.1093/molbev/msab373).

B1: Azoarcus group I ribozyme (parent)
chain: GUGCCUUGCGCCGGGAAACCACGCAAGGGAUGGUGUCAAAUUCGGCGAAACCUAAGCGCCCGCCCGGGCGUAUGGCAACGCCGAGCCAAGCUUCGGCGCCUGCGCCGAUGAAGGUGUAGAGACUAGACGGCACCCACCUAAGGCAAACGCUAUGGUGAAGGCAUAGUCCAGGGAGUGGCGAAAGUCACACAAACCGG

- Variants of: B1
- assay.name: reverse-splicing fitness (ratio to wild type); higher = more active; in vitro selection; Mg2+ level not given
Each record's reverse-splicing fitness is compared with category 1 (below 0.008), category 2 (0.008 to below 0.02), category 3 (0.02 or more) to give its class.

Exercise: Input C82G A111C A145C C150U C169G U176C ; output its category
Solution: category 2

Exercise: Input C82A A111G A120U A145G C150G U176G ; output its category
Solution: category 1

Exercise: Input A111U A120C A145C C150G C169G ; output its category
Solution: category 1

Exercise: Input C82G A111C A120C A145G C150U C169A U176C ; output its category
Solution: category 2

Exercise: Input C82A A111C A120C A145C C150U C169A U176G ; output its category
Solution: category 1

Exercise: Input A111G A120G A145U C150U ; output its category
Solution: category 3

Exercise: Input A111C A145U C150A U176A ; output its category
Solution: category 3

Exercise: Input C82A A111U A145U U176G ; output its category
Solution: category 3

Exercise: Input C82A A111C A120C A145U C150A C169A U176A ; output its category
Solution: category 2

Exercise: Input C82U C150A C169G U176A ; output its category
Solution: category 2

Exercise: Input C82G A111C A120U A145U C169U U176C ; output its category
Solution: category 1

Exercise: Input C82A A120U A145U C150U C169U ; output its category
Solution: category 1

Exercise: Input A120C A145C C150U C169U U176C ; output its category
Solution: category 3

Exercise: Input C82A A111U A120U A145C C150G C169A U176A ; output its category
Solution: category 1

Exercise: Input C82U A111C U176A ; output its category
Solution: category 3

Exercise: Input C82A A120G C150G C169U U176A ; output its category
Solution: category 2

Exercise: Input C82U A111U A120C C150G C169A ; output its category
Solution: category 2

Exercise: Input C82U A120G A145G C150G C169A U176G ; output its category
Solution: category 1

Exercise: Input A111G A120G C150A C169A U176G ; output its category
Solution: category 1
